# Tested on: human breast cancer cell line T-47D
# Method: Caspase cascade activation (DEVD-R110 fluorogenic substrate) in T-47D cells
# Assay type: cell-based
# Condition Summary: 24 h, read-out: Caspase Activation Potency EC50 (nM) (24 h) T-47D
Counter-ions that a name gives are not always drawn.
Exercise: for every item that follows, state its recorded EC50.
Answers are plain numbers, in nM.

Problem: Endpoint output: EC50 of COc1ccc(N(C)c2ncnc3sccc23)cc1 [Example 9] . Value?
Result: 19

Please go through the list and note EC50 for each compound.
1. COc1ccc(N(C)c2nc(-c3ccccc3)nc3ccsc23)cc1 [Example 19, hydrochloride]
2. COc1ccc(N(C)c2nc(C)nc3scc(C)c23)cc1 [Example 4]
3. COc1ccc(N(C)c2nc(C)nc3sccc23)cc1 [Example 2]

Result:
1. 337
2. 4
3. 9

Data provenance is patent US20070213305A1.
